- Test system: HepG2
- Test Protocol: GSK_TCMDC: Percent inhibition of human HepG2 cell line. Test compounds present at 10uM.
- Type: functional
Lab note: anything with Inhibition below 7% is marked Criterion met; values at 7% or higher are marked Criterion not met.

Please review the following examples before continuing.
CN(C)c1ccc(-c2nc3cc(N)ccc3[nH]2)cc1    Criterion met
CCNC[C@@H](O)[C@H](Cc1ccccc1)NC(=O)c1cc2c3c(c1)c(CC)cn3CCS(=O)(=O)N2C.O=CO    Criterion met
Cc1ccc(Sc2ccc(NC(=O)CN3CCN(C(=O)c4ccco4)CC3)cc2)cc1C    Criterion not met
CC(=O)O.CC(C)c1ccc(C2CCN(CCCCNC(=O)c3ccc(NC(=O)c4ccc(C(F)(F)F)cc4)cc3)CC2)c(O)c1    Criterion not met
COc1ccc(CNCCc2cccs2)cc1-c1ccc(S(=O)(=O)NCCN2CCCC2)cc1.O=C(O)C(F)(F)F    Criterion not met
COc1ccc(NC(=O)[C@H](CC(C)C)Nc2cc(C)nc(Nc3ccccc3)n2)cc1.O=C(O)C(F)(F)F    Criterion not met

Read the next record carefully.
Ask | Given CC(C)CCNC(=O)[C@@H]1[C@H]2C(=O)N(C3CCCCC3)C(=O)[C@H]2[C@H]2C=C[C@@H]3C(c4ccc(C(C)(C)C)cc4)=NO[C@@H]3N21 , is recorded Inhibition strictly lower than 7%?
Reply | Criterion met

----------
- System: Plasmodium falciparum
- Test Protocol: GSK_TCMDC: Inhibition of Plasmodium falciparum Dd2 in whole red blood cells, using parasite LDH activity as an index of growth. Test compounds present at 2uM
- Type: functional
Mark Satisfied for reported Inhibition of 20% or greater; mark Not satisfied for anything smaller.

O=C(Nc1ccccc1)Nc1ccc(-c2cccc(-c3nc4cc(C(F)(F)F)ccc4[nH]3)c2)cc1    Satisfied
Cl.O=C(NCCCCN1CCC(c2ccc3c(c2OC(=O)c2ccc(NC(=O)c4ccc(Cl)cc4)cc2)CCCC3)CC1)c1ccc(NC(=O)c2ccc(Cl)cc2)cc1    Satisfied
CCCCn1c(Sc2ccc(C#N)c([N+](=O)[O-])c2)nnc1-c1ccc(OC)cc1    Satisfied
O=C(/C=C/c1ccc(Cl)c(Cl)c1)NCCCN1CCC(c2c[nH]c3ccccc23)CC1    Not satisfied

Ask | Say whether COc1ccc(C(=O)N2CCc3cc4nccc(N5CCN6CCC[C@H]6C5)c4cc32)cc1 shows Inhibition of 20% or more.
Reply | Satisfied

Ask | Kindly determine if Inhibition recorded for O=C(Nc1cccc(CN2CCN(Cc3ccc(O)cc3)CC2)c1)c1cccc(C(F)(F)F)c1.O=C(O)C(F)(F)F is above or exactly 20%.
Reply | Not satisfied

Ask | Hello, I need to know if CC(C)c1cn2c3c(cc(C(=O)N[C@@H](Cc4ccccc4)[C@H](O)CNC4CCOCC4)cc13)N(C)S(=O)(=O)CC2.O=CO has measured Inhibition not below 20%. Thanks!
Reply | Satisfied

Ask | Entry Cc1cc(NCCC(=O)NCCOc2ccccc2)nc(Nc2ccccc2)n1.O=C(O)C(F)(F)F : is its Inhibition no less than 20%?
Reply | Satisfied

Ask | Check if Inhibition >= 20% (inclusive). Item: O=C(/C=C/c1ccc(Cl)c(Cl)c1)NCCCCCN1CC[C@H](NC(=O)c2sc3ccccc3c2Cl)C1
Reply | Not satisfied

Ask | Determine whether measured Inhibition meets or exceeds 20% for Cc1nc2nc(N)nc(N)c2c(C)c1Cc1cccc(C#N)c1.Cl
Reply | Not satisfied

Ask | Reported Inhibition reaches at least 20% for COc1cccc(Nc2nc(Nc3cccc(C#N)c3)cc(-c3ccncc3)n2)c1 ?
Reply | Satisfied

Ask | Decide: Inhibition of FC(F)(F)c1cccc(CNCC2CCN(Cc3ccc4c(c3)OCO4)CC2)c1.O=C(O)C(F)(F)F >= 20%?
Reply | Not satisfied

Ask | Entry Cc1[nH]c(C)c(-c2ccc(Oc3cccc(C(F)(F)F)c3)cc2)c(=O)c1Br : is its Inhibition no less than 20%?
Reply | Satisfied

Ask | Would you say Cc1ccc(CNC(=O)[C@H](CCCN)Nc2cc(C)nc(NCC3CCCCC3)n2)cc1.O=C(O)C(F)(F)F shows Inhibition at minimum 20%?
Reply | Not satisfied

Ask | Record CCc1cc(-c2onc(C)c2-c2cc3ccccc3o2)c(O)cc1OC ; criterion: Inhibition no lower than 20%. Met?
Reply | Satisfied

Ask | Record c1ccc(CSC2=NNC(c3ccccn3)S2)cc1 (stereo not drawn) ; criterion: Inhibition no lower than 20%. Met?
Reply | Satisfied

Ask | # check: Inhibition of CS(=O)(=O)Cc1ccc(Nc2nccc(N3CCCc4cc(NC(=O)Nc5cccc(C(F)(F)F)c5)ccc43)n2)cc1 is greater than or equal to 20%
Reply | Satisfied

Ask | Does Inhibition meet or surpass 20% for O=S(=O)(c1cc(Cl)c(Cl)cc1Cl)N1CCCCC(c2ccc(C(F)(F)F)cc2)=N1 ?
Reply | Satisfied
